reported-endpoint: Ki (nM)
Report only the number, with the unit nM understood.

Ask: Item Cc1cc(O)cc(C)c1C[C@H](N)C(=O)N1CCCc2ccccc21 with Mu-type opioid receptor (Homo sapiens) - Ki?
Reply: 25.8

---

experimental-system: Delta-type opioid receptor (Rattus norvegicus, UniProt P33533)
Sequence (P33533 whole entry): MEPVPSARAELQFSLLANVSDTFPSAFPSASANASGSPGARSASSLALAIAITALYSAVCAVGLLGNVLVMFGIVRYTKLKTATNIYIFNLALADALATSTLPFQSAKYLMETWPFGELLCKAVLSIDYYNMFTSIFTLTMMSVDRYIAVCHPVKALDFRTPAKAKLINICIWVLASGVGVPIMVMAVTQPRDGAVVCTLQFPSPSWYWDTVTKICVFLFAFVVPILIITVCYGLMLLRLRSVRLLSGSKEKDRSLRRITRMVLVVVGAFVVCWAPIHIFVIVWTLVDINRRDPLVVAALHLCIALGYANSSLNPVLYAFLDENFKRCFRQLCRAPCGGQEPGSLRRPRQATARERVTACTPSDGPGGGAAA
experiment-description: Displacement of [3H]diprenorphine from rat delta opioid receptor expressed in rat C6 cell membranes after 1 hr by liquid scintillation counting analysis
Could you please classify the records by Ki using these ranges: low value: < 0.008 µM; medium value: ≥ 0.008 µM and < 0.02 µM; high value: ≥ 0.02 µM

Ask: // bin(item) where item = Cc1cc(O)cc(C)c1C[C@H](N)C(=O)N1CCN(CCCc2ccccc2)CC1
Reply: high value

Ask: // bin(item) where item = Cc1cc(O)cc(C)c1C[C@H](N)C(=O)N1CCN(C/C=C/Cc2ccccc2)CC1
Reply: high value

Ask: // bin(item) where item = Cc1cc(O)cc(C)c1C[C@H](N)C(=O)N1CCN(CCCCCc2ccccc2)CC1
Reply: low value

Ask: // bin(item) where item = Cc1cc(O)cc(C)c1C[C@H](N)C(=O)N1CCN(C/C=C\Cc2ccccc2)CC1
Reply: high value

Ask: // bin(item) where item = Cc1cc(O)cc(C)c1C[C@H](N)C(=O)N1CCC(Cc2ccccc2)c2ccccc21 (some centres undefined)
Reply: medium value

Ask: // bin(item) where item = Cc1cc(O)cc(C)c1C[C@H](N)C(=O)N1CCC(CCCc2ccccc2)CC1
Reply: medium value

Ask: // bin(item) where item = Cc1cc(O)cc(C)c1C[C@H](N)C(=O)N1CCN(CCC(c2ccccc2)c2ccccc2)CC1
Reply: high value

Ask: // bin(item) where item = Cc1cc(O)cc(C)c1C[C@H](N)C(=O)N1CCN(CCCCc2ccccc2)CC1
Reply: low value

---

experimental-system: Kappa-type opioid receptor (Homo sapiens)
Sequence (P41145 whole entry): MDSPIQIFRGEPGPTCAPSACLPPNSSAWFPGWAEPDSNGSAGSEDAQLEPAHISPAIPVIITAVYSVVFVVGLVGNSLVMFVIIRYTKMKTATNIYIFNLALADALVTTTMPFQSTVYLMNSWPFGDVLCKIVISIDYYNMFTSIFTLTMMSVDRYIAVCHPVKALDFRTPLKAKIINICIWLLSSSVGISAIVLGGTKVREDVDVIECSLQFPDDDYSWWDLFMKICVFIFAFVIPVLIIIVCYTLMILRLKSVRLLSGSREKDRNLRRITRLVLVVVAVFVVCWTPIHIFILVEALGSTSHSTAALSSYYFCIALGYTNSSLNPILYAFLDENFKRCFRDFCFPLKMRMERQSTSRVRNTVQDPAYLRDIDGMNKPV
experiment-description: Binding affinity to kappa opioid receptor (unknown origin)
reported-endpoint: pKi
// pKi here means minus log10 of the molar concentration (mol/L)

Ask: Recorded pKi of Cc1cc(O)cc(C)c1C[C@H](N)C(=O)N1CCCc2ccccc21 , please.
Reply: 7.44

---

experimental-system: Mu-type opioid receptor (Rattus norvegicus)
experiment-description: Agonist activity at rat mu opioid receptor expressed in rat C6 cells assessed as stimulation of [35S]-GTPgammaS binding at 10 uM after 1 hr by liquid scintillation counting analysis relative to DAMGO
Format: functional, cell-based
Hi! Could you tag entries with %max below 30% as Met, and those at or above as Not met? Much appreciated.

Ask: I wonder whether Cc1cc(O)cc(C)c1C[C@H](N)C(=O)N1CCN(CCCCc2ccccc2)CC1 has %max below 30%. Can you tell?
Reply: Not met

Ask: I wonder whether Cc1cc(O)cc(C)c1C[C@H](N)C(=O)N1CCN(C/C=C\Cc2ccccc2)CC1 has %max below 30%. Can you tell?
Reply: Not met

Ask: I wonder whether Cc1cc(O)cc(C)c1C[C@H](N)C(=O)N1CCN(C/C=C/Cc2ccccc2)CC1 has %max below 30%. Can you tell?
Reply: Not met

Ask: I wonder whether Cc1cc(O)cc(C)c1C[C@H](N)C(=O)N1CCC(CCCc2ccccc2)CC1 has %max below 30%. Can you tell?
Reply: Met

Ask: I wonder whether Cc1cc(O)cc(C)c1C[C@H](N)C(=O)N1CCN(CCCCCc2ccccc2)CC1 has %max below 30%. Can you tell?
Reply: Not met

Ask: I wonder whether Cc1cc(O)cc(C)c1C[C@H](N)C(=O)N1CCN(CCCc2ccccc2)CC1 has %max below 30%. Can you tell?
Reply: Met
